SYSTEM TESTED: CaCYP51 F126V (Candida albicans, UniProt P10613, F126V)
Construct: made in house; host or cells: E. coli DH5α (pCWori+)
PROTOCOL DESCRIPTION: CYP51 reconstitution assay
Type: biochemical
CONDITION NOTES: 0.25 h, 4 μM triazole, % of activity without triazole, read-out: Residual CYP51 activity (%) ± SD
EXPERIMENTAL ENDPOINT: remaining activity at 4 µM (%)
Field: numeric (%). Do not append units.

Known remaining activity at 4 µM results, listed for orientation:
[
  {
    "COMPOUND": "CCC(C)n1ncn(-c2ccc(N3CCN(c4ccc(OCC5COC(Cn6cncn6)(c6ccc(Cl)cc6Cl)O5)cc4)CC3)cc2)c1=O (stereo not shown) [Itraconazole, itraconazole]",
    "UNIT SYMBOL": "%",
    "RESULT": 0.22
  },
  {
    "COMPOUND": "OC(Cn1cncn1)(Cn1cncn1)c1ccc(F)cc1F [Fluconazole, fluconazole]",
    "UNIT SYMBOL": "%",
    "RESULT": 0.09
  },
  {
    "COMPOUND": "C[C@@H](c1ncncc1F)[C@](O)(Cn1cncn1)c1ccc(F)cc1F [Voriconazole, voriconazole]",
    "UNIT SYMBOL": "%",
    "RESULT": 0.19
  }
]

Now let's try a different one.
Task: Reported remaining activity at 4 µM for CC[C@@H]([C@H](C)O)n1ncn(-c2ccc(N3CCN(c4ccc(OC[C@@H]5CO[C@@](Cn6cncn6)(c6ccc(F)cc6F)C5)cc4)CC3)cc2)c1=O [Posaconazole, posaconazole] : what is it?
Result: 0.1

Cited source for all entries: paper PMC6496074
